- target-under-test: T1, GHRH receptor of human pituitary membranes (human, UniProt Q02643)
- T1 sequence: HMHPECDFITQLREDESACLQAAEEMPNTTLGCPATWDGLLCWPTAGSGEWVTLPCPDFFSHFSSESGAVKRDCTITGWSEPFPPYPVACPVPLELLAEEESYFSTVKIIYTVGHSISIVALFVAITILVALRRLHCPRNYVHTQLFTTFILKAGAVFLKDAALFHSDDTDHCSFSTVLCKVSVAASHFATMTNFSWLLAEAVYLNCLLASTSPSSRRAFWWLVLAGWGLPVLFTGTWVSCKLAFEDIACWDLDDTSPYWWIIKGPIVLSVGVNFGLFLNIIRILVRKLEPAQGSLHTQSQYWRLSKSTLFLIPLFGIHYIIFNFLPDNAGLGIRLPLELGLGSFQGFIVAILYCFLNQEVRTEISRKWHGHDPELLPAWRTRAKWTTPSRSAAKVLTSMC
- assay-method-text: competition vs 125I-JV-1-42, human pituitary membranes;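 also: pituitaries used were normal human glands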
pIC50: −log10 of the molar value. Non-standard residues stand in square brackets, D forms with d. No end group written: not given here. *: point of attachment. NMeY = CN[C@@H](Cc1ccc(O)cc1)C(=O)O; Agmatine = N=C(N)NCCCCN*; Nle = CCCC[C@H](N)C(=O)O; Orn = NCCC[C@H](N)C(=O)O; Abu = CC[C@H](N)C(=O)O
value-type: pIC50

These recorded examples may help you get a feel for the data.
binder="[NMeY]ADAIFTQSYR[Orn]VL[Abu]QLSAR[Orn]LLQDI[Nle]D[Agmatine] [P-20356 [N-Me-Tyr^1, Gln^8, Orn^12, Abu^15, Orn^21, Nle^27, Asp^28, Agm^29]hGHRH(1-29)NH2]" value_type=pIC50 result_value=9.57
binder="[NMeY][dA]DAIFTNSYR[Orn]VL[Abu]QLSAR[Orn]LLQDI[Nle]DR-NHMe [P-27409 [N-Me-Tyr^1, D-Ala^2, Orn^12, Abu^15, Orn^21, Nle^27, Asp^28]hGHRH(1-29)NH-CH3]" value_type=pIC50 result_value=8.97
binder="YADAIFTNSYRKVLGQLSARKLLQDIMSRQ (N-Me-Tyr^1; Abu^2; Orn^12; Abu^15; Orn^21; Nle^27; Gab^30 (in place of Gln^30); C-terminal -NH2) [P-25503 [N-Me-Tyr^1, Abu^2, Orn^12, Abu^15, Orn^21, Nle^27, Gab^30]hGHRH(1-30)NH2]" value_type=pIC50 result_value=8.93
binder="[NMeY]ADAIFTQSYR[Orn]VL[Abu]QLSAR[Orn]LLQDI[Nle]DR-NHMe [P-27406 [N-Me-Tyr^1, Gln^8, Orn^12, Abu^15, Orn^21, Nle^27, Asp^28]hGHRH(1-29)NH-CH3]" value_type=pIC50 result_value=9.52
binder="[NMeY][dA]DAIFTQSYR[Orn]VL[Abu]QLSAR[Orn]LLQDI[Nle]DR-NHEt [P-28420 [N-Me-Tyr^1, D-Ala^2, Gln^8, Orn^12, Abu^15, Orn^21, Nle^27, Asp^28]hGHRH(1-29)NH-CH2-CH3]" value_type=pIC50 result_value=9.28
binder="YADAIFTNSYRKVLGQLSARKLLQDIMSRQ (N-Me-Tyr^1; D-Ala^2; Fpa5^6; Orn^12; Abu^15; Orn^21; Nle^27; Gab^30 (in place of Gln^30); C-terminal -NH-CH3) [P-27414 [N-Me-Tyr^1, D-Ala^2, Fpa5^6, Orn^12, Abu^15, Orn^21, Nle^27, Gab^30]hGHRH(1-30)NH-CH3]" value_type=pIC50 result_value=8.81
binder="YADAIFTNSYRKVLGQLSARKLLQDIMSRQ (N-Me-Tyr^1; Orn^12; Abu^15; Orn^21; Nle^27; Gab^30 (in place of Gln^30); C-terminal -NH-CH3) [P-27415 [N-Me-Tyr^1, Orn^12, Abu^15, Orn^21, Nle^27, Gab^30]hGHRH(1-30)NH-CH3]" value_type=pIC50 result_value=8.52

[P] [NMeY]ADAIFTQSYR[Orn]VL[Abu]QLSAR[Orn]LLQDI[Nle]SR-NHMe [P-27405 [N-Me-Tyr^1, Gln^8, Orn^12, Abu^15, Orn^21, Nle^27]hGHRH(1-29)NH-CH3]
[Q] [NMeY][dA]DAIFTQSYR[Orn]VL[Abu]QLSAR[Orn]LLQDI[Nle]DR-NHMe [P-27403 [N-Me-Tyr^1, D-Ala^2, Gln^8, Orn^12, Abu^15, Orn^21, Nle^27, Asp^28]hGHRH(1-29)NH-CH3]
[R] [NMeY][dA]DAIFTNSYR[Orn]VL[Abu]QLSAR[Orn]LLQDI[Nle]D[Agmatine] [P-20367 [N-Me-Tyr^1, D-Ala^2, Orn^12, Abu^15, Orn^21, Nle^27, Asp^28, Agm^29]hGHRH(1-29)NH2]
Enquiry: Arrange the 3 binders from largest to smallest pIC50. Return value: ordered labels per request.
Return: Q, P, R
